tested on: HOP-18 NSCLC; experiment: NCI tumour cell line growth inhibition, 48 h
value.kind: TGI

Reference set (3 entries):
compound | assay.target | TGI
C=C[C@@]1(O)CCCC2=C(C(=O)OCC)CC[C@]21C | HOP-18 NSCLC | > 100 µM
COC(=O)C(Cc1nc2ccccc2[nH]c1=O)C(=O)C(=O)Nc1ccc([N+](=O)[O-])cc1[N+](=O)[O-] (configuration not stated) | HOP-18 NSCLC | 32.1 µM
CC(=O)OC1CC2C(C)(C)C(=O)C=C[C@]2(C)C2CCC3(C)C(=CC(=O)C3c3ccoc3)[C@]12C (some centres not stated) | HOP-18 NSCLC | 33.8 µM

query: I'd like to know its TGI. The compound in question is `CCOc1cccc2ccc[n+](CC)c12`
result: > 100 µM

---

tested on: RXF 393 renal; assay: NCI tumour cell line growth inhibition, 48 h
value.kind: TGI

# count of solved cases: 3
compound | value.kind | recorded.result
O=CC12C3CCC1C2C(=O)C3 (stereo not given) | TGI | > 100 µM
O=[N+]([O-])c1cc2c(cc1/C=N/n1c(CO)nc3ccccc31)OCO2 | TGI | > 100 µM
COc1cccc(/C=C/C(=O)c2ccc(Cl)cc2Cl)c1 | TGI | 20.5 µM

query: Quick one: TGI for `Cc1ccc(S(=O)(=O)NNC(=O)c2cc(C)c(C)cc2N)cc1` ?
result: > 100 µM

query: Now give it for `CN(C)CCCn1nc(N)c2nc3cc(Cl)ccc3nc21` too.
result: > 100 µM

query: Cool, now `CSc1n[n+]2c(s1)SCCC2`
result: > 100 µM

query: Follow-up entry: `O=c1c(=O)c2c(Br)sc(Br)c2c1=O`
result: 34.7 µM

query: For `CC[C@H]1C=CCC[C@@]2(C[C@@H]3CC[C@H]4[C@@H](C(=O)OCCCCCCCCCCCCCCCC(=O)N(CCCN)C[C@@H](O)CCN)[C@@]5(CCC[C@@H](C)O5)NC(=[N+]34)N2)O1` then?
result: 4.41 µM

query: Another: `Cc1cn([C@@H]2O[C@H](CO[Si](C)(C)C(C)(C)C)[C@]3(O[C@H]3C(=O)NN)[C@H]2O[Si](C)(C)C(C)(C)C)c(=O)[nH]c1=O`
result: > 25.2 µM

query: Entry COc1cc2cc(C(=O)N3CC(CCl)c4c3cc(N)c3ccccc43)[nH]c2c(OC)c1OC (stereo not given) please
result: < 0.01 µM

---

test system: RXF 393 renal; assay: NCI tumour cell line growth inhibition, 48 h
value.kind: TGI (µM)
Field format: number, assumed µM, no unit text.

As a guide, the following entries are already answered.
compound | TGI [µM]
COC(=O)[C@H](Cc1c[nH]c2ccccc12)NC(=O)c1ccc(CNC(=O)/C=C/c2cccc(Oc3ccccc3)c2)cc1 | 81.6
COc1ccc(N2C=Nn3c(nc4sc5c(c4c3=O)CCCC5)C2)cc1 | 57.1
CC(=O)OC1CC2C(C)(C)C(=O)C=C[C@]2(C)C2CCC3(C)C(=CC(=O)C3c3ccoc3)[C@]12C (stereo partly specified) | 10.1

query: I have this compound here, N#C/C(=C1\SC(N=Nc2ccccc2)C(=O)N1c1ccccc1)c1nc2ccccc2[nH]1 (stereo unspecified) , and I need its recorded TGI.
result: 97.6

query: How about Cc1ccc(C)c(C2NC(=O)c3ccccc3N2)c1 (stereo unspecified) ?
result: 14.3

query: Please give the result for `O=C(O)Cc1ccc2[nH]c(O)c(C3=Nc4ccccc4C3=O)c2c1` too.
result: 58.5

query: Now the same for C/C=C/C1OC(O)(C(C)C(O)[C@H](C)C2OC(=O)/C(OC)=C/C(C)=C/[C@@H](C)[C@@H](O)[C@@H](C)C(O)C(C)C/C(C)=C/C=C/C2OC)C[C@@H](OC2CC(O)C(OC(N)=O)C(C)O2)C1C (stereo partly specified)
result: 1.91

query: Repeat with `CCOC(=O)C(C)(C)Oc1ccc(/C=C/C(=O)c2ccc(Cl)cc2)cc1`
result: 30.5

query: Note, next up: `O=C(/C=C/c1ccccc1)n1c(-c2ccc(Cl)cc2)nc2ccccc21`
result: 3.12
